Taken from paper PMC10257758.

The entries below are paired with their reported Ki.
target: CA II (Homo sapiens); assay: CA-catalysed CO2 hydration stopped-flow inhibition assay, CA II; type: biochemical; conditions: mean from 3 assays, μM unless stated

# count of solved cases: 8
Ki measured on CC(=O)NS(=O)(=O)c1ccc(NC(=O)c2cc3cc(Br)ccc3oc2=O)cc1 [15c] = 46.8 µM

Ki measured on CC(=O)NS(=O)(=O)c1ccc(NC(=O)c2cc3ccccc3oc2=O)cc1 [15e] = 10.3 µM

Ki measured on Cc1nnc(NS(=O)(=O)c2ccc(NC(=O)c3cc4cc(Br)ccc4oc3=O)cc2)s1 [13c] = > 100 µM

Ki measured on COc1ccc(NS(=O)(=O)c2ccc(NC(=O)c3cc4cc(Cl)cc(Cl)c4oc3=O)cc2)nn1 [11d] = > 100 µM

Ki measured on COc1cc(NS(=O)(=O)c2ccc(NC(=O)c3cc4cc(Br)ccc4oc3=O)cc2)nc(OC)n1 [14c] = > 100 µM

Ki measured on CCOC(=O)c1cc2ccc(OCC(=O)Nc3ccc(S(=O)(=O)NC(C)=O)cc3)cc2oc1=O = > 100 µM

Ki measured on COc1cc(NS(=O)(=O)c2ccc(NC(=O)c3cc4ccccc4oc3=O)cc2)nc(OC)n1 [14e] = > 100 µM

Ki measured on COc1ccc(NS(=O)(=O)c2ccc(NC(=O)c3cc4cc(Cl)ccc4oc3=O)cc2)nn1 [11b] = > 100 µM

***
Ki measured on CCOC(=O)c1cc2ccc(OCC(=O)Nc3ccc(S(=O)(=O)Nc4ncnc(OC)c4OC)cc3)cc2oc1=O = > 100 µM
